- Test system: SW-620
- Assay name: NCI tumour cell line growth inhibition, 48 h
Activity calls are given as the source filed them. Rule as the data show it: active = GI50 up to about 1.1 µM and inactive = higher.
# valid calls are active, inactive; nothing else

Observe how each entry below is paired with its result.
CCC1=CCN(c2cc(C)ccn2)OC1c1ccc(OC)cc1 (stereo not given) = inactive
CC1CCCCc2nc3c(c(=O)n21)CCCC3 (stereo not given) = inactive
CC1CC2C(=O)N(c3ccccc3)C(=O)C2c2[nH]c3ccccc3c21 (stereo not given) = inactive
[N-]=[N+]=NC1C(Cl)C(=O)NC(=O)N1[C@H]1C[C@H](O)[C@@H](CO)O1 (stereo not given in full) = inactive
Cc1ccc(S(=O)(=O)N/N=C2/C3CCC(C3)C2c2ccccc2)cc1 (stereo not given) = inactive
CC1CC[C@@]2(OC1)OC1C[C@H]3[C@@H]4CC[C@H]5CC(OC6OC(CO)C(OC7OC(CO)C(O)C(O)C7OC7OC(CO)C(O)C(O)C7O)C(O)C6O)CCC5(C)[C@H]4CCC3(C)C1[C@@H]2C (stereo not given in full) = active
Cc1cc(Cl)ccc1/N=C1/NC(=O)C(CC(=O)Nc2cccc(C)c2C)S1 (stereo not given) = inactive
COC(=O)C1=C2CCC(=O)[C@@]2(C)C(OC(C)=O)C=CC1 (stereo not given in full) = inactive
O=C1c2sc(-c3ccc(Cl)cc3)cc2-n2cccc21 = inactive
COCOCC[C@@H]1CC=CC(NC(=O)OCc2ccccc2)C1/C=C/C(=O)CCC1OCCO1 (stereo not given in full) = inactive

What did this assay record as the result for COC(=O)c1ccc(S)c(S(=O)(=O)Nc2nc(N)n[nH]2)c1 ?
inactive

What did this assay record as the result for Cc1oc(N)c(S(=O)(=O)c2cc3ccccc3[n+]([O-])c2N)c1C ?
inactive

What did this assay record as the result for O=S(=O)(OI(O)CC(F)(F)F)C(F)(F)F ?
inactive

What did this assay record as the result for O=C1C(c2c(O)[nH]c3ccc([N+](=O)[O-])cc23)=Nc2ccccc21 ?
inactive

What did this assay record as the result for C=C1C(=O)O[C@@H]2/C=C(C)/C=C\[C@@H]3O[C@@]3(C)C[C@@H](O)C12 (stereo not given in full) ?
inactive

What did this assay record as the result for [O-][n+]1ccccc1S ?
active

What did this assay record as the result for Cc1ccccc1C1OC1C(=O)c1ccccc1N (stereo not given) ?
inactive

What did this assay record as the result for O=C1N=C(Nc2ccccc2Cl)N/C1=C\c1ccc(Cl)cc1Cl ?
inactive

What did this assay record as the result for O=C(NCCCCCCCCNC(=O)c1cnc2ccccc2n1)c1cnc2ccccc2n1 ?
inactive

What did this assay record as the result for O=C(N/N=C\c1cccc2ccccc12)Nc1cccc2ccccc12 ?
inactive

What did this assay record as the result for Cc1nc2ccccc2c(=O)n1-c1ccccc1F ?
inactive

What did this assay record as the result for CN(c1nc(=[N+](C)C)ss1)C1CCCCC1 ?
inactive

What did this assay record as the result for C#CCSC(C=C=C)P(=O)(OC(C)C)OC(C)C (stereo not given) ?
inactive

----------
- Test system: NCI-H522
- Assay name: NCI tumour cell line growth inhibition, 48 h
Active and inactive are the calls of the source. No stated cut-off is given here; in the data, active = GI50 up to about 1.1 µM and inactive = higher.
Measurement kind: GI50

GI50 recorded for this molecule, C[C@H](Nc1nc(N)c(N=O)c(=O)n1C)C(=O)O , is > 10 µM (inactive)

GI50 recorded for this molecule, CC(=O)NC(CCCOC(C)=O)C(=O)NC(CCCOC(C)=O)C(=O)NC(CCCOC(C)=O)C(=O)NC(Cc1ccc([N+](=O)[O-])cc1)C(=O)NCC(=O)OCc1ccccc1 (centres undefined) , is > 100 µM (inactive)

GI50 recorded for this molecule, CC(=O)Nc1ccc(S(=O)(=O)NN(C)S(=O)(=O)c2ccc(C)cc2)cc1 , is > 100 µM (inactive)

GI50 recorded for this molecule, COc1ccc2nc3cc(Cl)ccc3c(Sc3ccc([N+](=O)[O-])cc3C)c2c1 , is > 100 µM (inactive)

----------
- System: HOP-62
- Assay name: NCI tumour cell line growth inhibition, 48 h
Activity calls are given as the source filed them. Rule as the data show it: active = GI50 up to about 1.1 µM and inactive = higher.
Measurement kind: GI50

Illustrative cases are given below, each with its answer.
COC(=O)C(Cc1nc2ccccc2nc1C)/C(=N\NC(N)=O)C(=O)Nc1cccc([N+](=O)[O-])c1 (centres undefined) = > 100 µM (inactive)
O=c1c2cc(I)ccc2nc(-c2cccs2)n1-c1ccc(O)cc1 = 17.5 µM (inactive)
Cc1cccc2c(N)c3cccc(C(=O)NCC[N+](C)(C)Cc4ccccc4[N+](=O)[O-])c3nc12 = 7.48 µM (inactive)
CC(=O)NC(CCCOC(C)=O)C(=O)NC(CCCOC(C)=O)C(=O)NC(CCCOC(C)=O)C(=O)NC(Cc1ccc([N+](=O)[O-])cc1)C(=O)NCC(=O)OCc1ccccc1 (centres undefined) = > 100 µM (inactive)
Nc1nc(=S)[nH]c2nc3c(c(-c4ccccc4)c12)CCCC3 = > 100 µM (inactive)
Cc1cc2ccccc2n1CC(=O)N1CCCC1 = > 100 µM (inactive)

GI50 recorded for this molecule, N#CC1Nc2ccccc2[C@@H](O)C1O (some centres undefined) , is > 100 µM (inactive)

GI50 recorded for this molecule, COc1ccc(C(=O)c2[nH]c(Nc3ccc(Cl)cc3)c(C(=S)Nc3ccccc3)c2N)cc1 , is > 100 µM (inactive)

GI50 recorded for this molecule, OCCN1CCN2C=C(C3CCCC4N(CCO)CCN34)CCC21 (centres undefined) , is > 100 µM (inactive)

----------
- System: NCI/ADR-RES
- Assay name: NCI tumour cell line growth inhibition, 48 h
The source made the active and inactive calls. Rule as the data show it: active = GI50 up to about 1.1 µM and inactive = higher.
# valid calls are label 1 for active, label 0 for inactive; nothing else

Observe how each entry below is paired with its result.
Nc1c2ccccc2nc2ccc(C(=O)Nc3ccc(S(N)(=O)=O)cc3)cc12 = label 0
O=C(NCCCNC(=O)c1ccc2cc(O)c(O)cc2c1)c1ccc2cc(O)c(O)cc2c1 = label 0
Brc1sc(Br)c2c1[C@H](Br)C[C@@H]2Br = label 0
O=c1[nH]cc(NCCCl)c(=O)[nH]1 = label 0
N=C(N)NS(=O)(=O)c1ccc(Nc2c3ccccc3nc3c(C(=O)NCCO)cccc23)cc1 = label 1

What did this assay record as the result for COc1ccc(NC2=NCCO2)c2ccccc12 ?
label 0

What did this assay record as the result for COc1cc2oc(=O)cc(C)c2c(OC)c1OC(C)=O ?
label 0

What did this assay record as the result for O=NN(CCF)C(=O)NC1CCSCC1 ?
label 0

What did this assay record as the result for CCC(C(C)N1CC(=O)NC(=O)C1)N1CC(=O)NC(=O)C1 (centres undefined) ?
label 0

What did this assay record as the result for O=C(CC(c1ccccc1)C1C(=O)NC(=S)NC1=O)c1ccc([N+](=O)[O-])cc1 (centres undefined) ?
label 0

What did this assay record as the result for CN1COCc2c1ccc1cc3ccc4c(c3nc21)COCN4S(C)(=O)=O ?
label 0

What did this assay record as the result for COc1nc2ncc([C@@H](O)[C@H](O)CO)nc2c(=O)[nH]1 ?
label 0

What did this assay record as the result for C=CCC1(C)CCCN(Cc2ccccc2)C1=O (centres undefined) ?
label 0

What did this assay record as the result for NCCCNC1(c2cc3ccccc3s2)CCCCC1 ?
label 0

What did this assay record as the result for O=c1cccc2n1C[C@H]1CNC[C@H]2C1 ?
label 0

What did this assay record as the result for CC(=S)N/C=C1/C(=O)C=C(C)OC1=O ?
label 0

----------
- Tested on: A498
- Assay name: NCI tumour cell line growth inhibition, 48 h
Active and inactive are the calls of the source. Cut-off read from the data, not from the text of the source: active = GI50 up to about 1.1 µM and inactive = higher.
# valid calls are 1 = active, 0 = inactive; nothing else

Observe how each entry below is paired with its result.
N#C/C(=C1\OC(=N)C(c2ccc(Cl)cc2)=C1O)c1ccc(Cl)cc1 = 0
O=[N+]([O-])c1ccc(Nc2nc3ccccc3s2)cc1 = 0
CCN(CCN(CC)C(=O)NC)C(=O)NC = 0
COc1nc(O)c(N)c(NC2OC(CO)C(O)C(O)C2O)n1 (centres undefined) = 0
CC(=O)O[C@H]1C[C@H](O[C@H]2[C@@H](O)C[C@H](O[C@H]3[C@@H](O)C[C@H](O[C@H]4CC[C@@]5(C)[C@H](CC[C@@H]6[C@@H]5CC[C@]5(C)[C@@H](C7=CC(=O)OC7)CC[C@]65O)C4)O[C@@H]3C)O[C@@H]2C)O[C@H](C)[C@H]1O[C@@H]1O[C@H](CO)[C@@H](O)[C@H](O)[C@H]1O = 1

What did this assay record as the result for COCOCC[C@@H]1CC=CC(NC(=O)OCc2ccccc2)C1/C=C/C(=O)CCC1OCCO1 (some centres undefined) ?
0

What did this assay record as the result for COc1ccc(NC2=NCCO2)c2ccccc12 ?
0

What did this assay record as the result for O=c1[nH]cc(NCCCl)c(=O)[nH]1 ?
0

What did this assay record as the result for COC(=O)CNC(=O)C(Cc1ccccc1)NC(=O)c1ccc(-c2ccc(Cl)cc2Cl)o1 (centres undefined) ?
0

Values compiled from ChEMBL document CHEMBL1201862.
